Each entry below lists one item and its recorded RP-LC retention time value.
# method_description: gradient 5% acetonitrile 3 min, to 50% in 2 min, to 85% in 15 min, held 3 min, 100 µL/min
# applied_conditions: column: Zorbax Extend-C18 2.1 x 50 mm; eluents: water / acetonitrile, 0.1% formic acid

- compound: "CCOc1ccc(NC(=O)Cn2c(=O)cc(-c3nc(C(C)C)no3)c3ccccc32)cc1"
  test_result: "1030 s"
- compound: "CC(NC(=O)CSc1nnc2c3ccccc3nc(-c3ccco3)n12)c1nc2ccccc2[nH]1 (centres undefined)"
  test_result: "638 s"

Indicate its recorded RP-LC retention time; the compound in question is CCN1C(=O)c2c(C(=O)NCc3ccc(C)cc3)ncn2CC1(C)C(=O)NC1CCCC1 (centres undefined)
783 s

Indicate its recorded RP-LC retention time; the compound in question is CN(C)C(=O)c1cc2c(s1)CCC(C(=O)NCc1ccncc1)C2 (centres undefined)
556 s

* * *

# method_description: gradient 5% acetonitrile 3 min, to 50% in 2 min, to 85% in 15 min, held 3 min, 100 µL/min
# applied_conditions: column: Zorbax Extend-C18 2.1 x 50 mm; eluents: water / acetonitrile, 0.1% formic acid
measurement_type: RP-LC retention time (s)
Express the result in s but write the number alone.

Here are 6 compounds together with their reported answers.
- compound: "CN(CCc1noc(COc2ccc(Cl)cc2)n1)C(=O)c1ccco1"
  measurement_type: "RP-LC retention time"
  unit_annotation: "s"
  test_result: 856
- compound: "Nc1ccccc1NC(=O)c1ccc(CNc2nccc(-c3cccnc3)n2)cc1"
  measurement_type: "RP-LC retention time"
  unit_annotation: "s"
  test_result: 664
- compound: "N#Cc1ccc(C(=O)NCC(=O)N2CCCc3ccccc32)cc1"
  measurement_type: "RP-LC retention time"
  unit_annotation: "s"
  test_result: 773
- compound: "O=C(c1cc(-c2ccncc2)n[nH]1)N1CCC(C(=O)N2CCN(c3ccc(Cl)cc3)CC2)CC1"
  measurement_type: "RP-LC retention time"
  unit_annotation: "s"
  test_result: 672
- compound: "COC(=O)CN1N=C(C(=O)N2CCC(C)CC2)S(=O)(=O)c2ccccc21"
  measurement_type: "RP-LC retention time"
  unit_annotation: "s"
  test_result: 825
- compound: "Cc1ccccc1Cn1cc(-c2ccncc2)cc1C(=O)Nc1ccc2c(c1)OCO2"
  measurement_type: "RP-LC retention time"
  unit_annotation: "s"
  test_result: 749

Indicate its recorded RP-LC retention time; the compound in question is COC(=O)c1sc(-c2ccccc2)cc1NC(=O)c1ccc([N+](=O)[O-])s1
1370

Indicate its recorded RP-LC retention time; the compound in question is Cc1csc(-c2cc(S(=O)(=O)Nc3ccc(Cl)cc3)c(C)s2)n1
1060

Indicate its recorded RP-LC retention time; the compound in question is O=C(Nc1ccc2c(c1)OCO2)c1nnc(C(=O)N2CCCC(C(=O)NC3CCCC3)C2)s1 (centres undefined)
860

* * *

# method_description: gradient 5% acetonitrile 3 min, to 50% in 2 min, to 85% in 15 min, held 3 min, 100 µL/min
# applied_conditions: column: Zorbax Extend-C18 2.1 x 50 mm; eluents: water / acetonitrile, 0.1% formic acid
measurement_type: RP-LC retention time
Quick note: number first, unit second.

Here are 6 compounds together with their reported answers.
- compound: "CCCN1CCN(C(=O)CC(c2ccc(C)cc2)N2Cc3ccccc3C2=O)CC1 (centres undefined)"
  RP-LC retention time: "666 s"
- compound: "O=C(NCCc1ccccc1)C1CCCN(c2ncnc3c2nc2n3CCCCC2)C1 (centres undefined)"
  RP-LC retention time: "758 s"
- compound: "Cc1cnc(C2CN(CC3CCCCC3)C2)n1Cc1ccccc1"
  RP-LC retention time: "600 s"
- compound: "Cc1oc(-c2ccc(C(=O)NCC3COCCO3)cc2)nc1CN1CCc2ccccc21 (centres undefined)"
  RP-LC retention time: "876 s"
- compound: "Cc1noc(C)c1-c1ccc(S(=O)(=O)NCC2CCCO2)cc1 (centres undefined)"
  RP-LC retention time: "767 s"
- compound: "Cc1cc(C(=O)NCCN2CCCCC2)c2cc(Br)ccc2n1"
  RP-LC retention time: "567 s"

Indicate its recorded RP-LC retention time; the compound in question is O=C(NCc1cc(F)cc(F)c1)c1ccc2c(c1)nc1n2CCN(C2CCCCC2)C1=O
830 s

Indicate its recorded RP-LC retention time; the compound in question is Cc1cccc(CS(=O)(=O)NCCCN2CCN(c3ccccc3)CC2)c1
588 s

Indicate its recorded RP-LC retention time; the compound in question is CN(C)CCN1CC(C(=O)N2CCC(c3c[nH]c4ccccc34)(c3c[nH]c4ccccc34)CC2)CC1=O (centres undefined)
657 s
